Data provenance: patent US20190054137A1

assay-system: T1, Recombinant human p65 protein (r-p65) with DDK tag (OriGene catalog number TP320780) (human, UniProt Q04206 1-551)
T1 construct: mature; also called r-p65-DDK; human r-p65; not shown: DDK tag
T1 sequence (Q04206 whole entry): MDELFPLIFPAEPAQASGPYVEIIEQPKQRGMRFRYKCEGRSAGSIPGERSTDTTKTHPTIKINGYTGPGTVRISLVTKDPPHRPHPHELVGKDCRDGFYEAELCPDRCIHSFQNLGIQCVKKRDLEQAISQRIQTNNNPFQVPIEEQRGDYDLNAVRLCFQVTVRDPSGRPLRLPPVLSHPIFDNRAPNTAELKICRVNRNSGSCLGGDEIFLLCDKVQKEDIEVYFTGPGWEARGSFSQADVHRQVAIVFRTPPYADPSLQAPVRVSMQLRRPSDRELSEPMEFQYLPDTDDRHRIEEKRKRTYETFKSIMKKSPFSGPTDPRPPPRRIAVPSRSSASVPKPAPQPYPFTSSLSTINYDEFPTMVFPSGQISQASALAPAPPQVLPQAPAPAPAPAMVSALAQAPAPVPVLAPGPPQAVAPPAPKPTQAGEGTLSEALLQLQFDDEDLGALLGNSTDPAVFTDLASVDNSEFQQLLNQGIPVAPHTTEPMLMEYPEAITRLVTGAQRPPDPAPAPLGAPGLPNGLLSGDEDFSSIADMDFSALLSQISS
measurement-protocol: plate-bound PGA probed with r-p65-DDK, method of Friguet, Scatchard analysis
measurement-label: Kd (µM)
Just the number in µM, nothing appended.

Look at this binder and give its reported Kd. Ac-EPAPYQPEG-NH2 (also called Analog 14 (GA-3)) [PGA-3] 3.27

Can you check Ac-EPAPEQPDG-NH2 (also called Analog 8 (GA-5)) [PGA-5] next? 3.4

Can you check Ac-EPAPESPQV-NH2 (also called Analog 7 (GA-4)) [PGA-4] next? 3.28

Can you check Ac-EPAPLAPYG-NH2 (also called Analog 3 (GA-2)) [PGA-2] next? 2.29

Can you check Ac-APKPYQPRG-NH2 (also called Analog 20 (GA-1)) [PGA-1] next? 4.28
